Test: Pharmacokinetics in C57BL/6 mice after single IV and PO administration
Type: in vivo
Measurement parameters: C57BL/6, mouse, liver, po, 10 mg/kg, liver/plasma; 10 mg/kg PO single dose; read-out: AUC0–∞ ratio (tissue/plasma)
Quantity name: Kp

Quick check: Kp of N=c1c2c(-c3ccccc3)c(-c3ccccc3)n(Cc3ccccc3)c2ncn1[C@H]1CC[C@H](O)CC1 ?
> 50

====

Test: Steady-state PK in KPC mice fed metarrestin-infused chow
Format: in vivo
Measurement parameters: KPC, mouse, plasma, oral; 15 hr; day 10, 10 mg/kg/day (70 ppm) chow; read-out: Plasma concentration
Quantity name: concentration at 15 h (nM)
Record the value in nM, omitting the unit from your answer.

Quick check: concentration at 15 h of N=c1c2c(-c3ccccc3)c(-c3ccccc3)n(Cc3ccccc3)c2ncn1[C@H]1CC[C@H](O)CC1 ?
360

====

Test: Steady-state PK in KPC mice fed metarrestin-infused chow
Type: in vivo
Measurement parameters: KPC, mouse, tumor, oral; 15 hr; day 10, 10 mg/kg/day (70 ppm) chow; read-out: Tumor concentration
Quantity name: concentration at 15 h (µM)
Record the value in µM, omitting the unit from your answer.

Quick check: concentration at 15 h of N=c1c2c(-c3ccccc3)c(-c3ccccc3)n(Cc3ccccc3)c2ncn1[C@H]1CC[C@H](O)CC1 [metarrestin] ?
7.2

====

Test: Pharmacokinetics in tumor-bearing KPC mice after 25 mg/kg single or multiple dose oral gavage
Assay type: in vivo
Measurement parameters: KPC, mouse; spleen; day 14, multiple PO doses 25 mg/kg/day
Quantity name: Tmax

Quick check: Tmax of N=c1c2c(-c3ccccc3)c(-c3ccccc3)n(Cc3ccccc3)c2ncn1[C@H]1CC[C@H](O)CC1 ?
6 h

====

Test: Steady-state PK in KPC mice fed metarrestin-infused chow
Type: in vivo
Measurement parameters: KPC, mouse, plasma, oral; 0 hr; day 10, 10 mg/kg/day (70 ppm) chow; read-out: Plasma concentration
Quantity name: concentration at 0 h (nM)
Record the value in nM, omitting the unit from your answer.

Quick check: concentration at 0 h of N=c1c2c(-c3ccccc3)c(-c3ccccc3)n(Cc3ccccc3)c2ncn1[C@H]1CC[C@H](O)CC1 ?
460

====

Test: Pharmacokinetics in tumor-bearing KPC mice after 25 mg/kg single or multiple dose oral gavage
Format: in vivo
Measurement parameters: KPC, mouse, plasma, po, 25 mg/kg/day, plasma; day 14, multiple PO doses 25 mg/kg/day; read-out: AUC0–48h
Quantity name: AUC(0-t) (ng·h/mL)
Record the value in ng·h/mL, omitting the unit from your answer.

Quick check: AUC(0-t) of N=c1c2c(-c3ccccc3)c(-c3ccccc3)n(Cc3ccccc3)c2ncn1[C@H]1CC[C@H](O)CC1 ?
38400

====

Test: Pharmacokinetics in tumor-bearing KPC mice after 25 mg/kg single or multiple dose oral gavage
Assay type: in vivo
Measurement parameters: KPC, mouse; spleen; day 14, multiple PO doses 25 mg/kg/day
Quantity name: Cmax (µg/mL)
Record the value in µg/mL, omitting the unit from your answer.

Quick check: Cmax of N=c1c2c(-c3ccccc3)c(-c3ccccc3)n(Cc3ccccc3)c2ncn1[C@H]1CC[C@H](O)CC1 ?
62.4

====

Test: Steady-state PK in KPC mice fed metarrestin-infused chow
Assay type: in vivo
Measurement parameters: KPC, mouse, po; tumor; day 10, chow, target dose 10 mg/kg/day
Quantity name: Tmax

Quick check: Tmax of N=c1c2c(-c3ccccc3)c(-c3ccccc3)n(Cc3ccccc3)c2ncn1[C@H]1CC[C@H](O)CC1 ?
9 h
